Entry source: PubChem BioAssay AID1963984

- Test system: 233499-124-R-J3-PDC spheroids with HUVEC/MSC, viability;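 further: spheroids exposed to agents for seven days before readout; percent viability relative to DMSO vehicle control taken as 100%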
- PROCEDURE DETAILS: Anticancer human tumor 233499-124-R-J3-PDC patient-derived colon adenocarcinoma cell line growth inhibition [PI3K]
- EXPERIMENTAL CONTEXT: second compound 0.316 µM; first compound 3.16 µM; active compounds read low
Kindly apply the following: 1.0 if viability, T/C is less than 70%, 0.0 in every other case.

COMPOUND	CLASS LABEL
CC(Cn1ccc(-c2ccc(C#N)c(Cl)c2)n1)NC(=O)c1cc(C(C)O)[nH]n1 (stereo not given) + CC(Nc1ccc2c(c1)OCCn1cc(N3C(=O)OCC3C(F)F)nc1-2)C(N)=O	0.0
CC1(C)CCC(CN2CCN(c3ccc(C(=O)NS(=O)(=O)c4ccc(NCC5CCOCC5)c([N+](=O)[O-])c4)c(Oc4cnc5[nH]ccc5c4)c3)CC2)=C(c2ccc(Cl)cc2)C1 + CC(Nc1ccc2c(c1)OCCn1cc(N3C(=O)OCC3C(F)F)nc1-2)C(N)=O	1.0
CC(Cn1ccc(-c2ccc(C#N)c(Cl)c2)n1)NC(=O)c1cc(C(C)O)[nH]n1 (stereo not given) + CC(Nc1ncnc2nc[nH]c12)c1cc2cccc(Cl)c2c(=O)n1-c1ccccc1	0.0

Alright, here's another compound for you.
In: Dear colleague, could you confirm whether viability, T/C of Cn1ncc(Cl)c1-c1cc(C(=O)NC(CN)Cc2cccc(F)c2)sc1Cl (stereo not given) + CC(Nc1ncnc2nc[nH]c12)c1cc2cccc(Cl)c2c(=O)n1-c1ccccc1 falls below 70%? Thanks.
Out: 1.0
